# assayed_system: T1, human LAG-3 (full length, on the cell surface) (human, UniProt P18627 23-525)
# T1 construct: Full-length human LAG-3 expressed on cells; also called HEK293-hLAG-3; HEK293 cells transfected with LAG-3 gene
# T1 sequence: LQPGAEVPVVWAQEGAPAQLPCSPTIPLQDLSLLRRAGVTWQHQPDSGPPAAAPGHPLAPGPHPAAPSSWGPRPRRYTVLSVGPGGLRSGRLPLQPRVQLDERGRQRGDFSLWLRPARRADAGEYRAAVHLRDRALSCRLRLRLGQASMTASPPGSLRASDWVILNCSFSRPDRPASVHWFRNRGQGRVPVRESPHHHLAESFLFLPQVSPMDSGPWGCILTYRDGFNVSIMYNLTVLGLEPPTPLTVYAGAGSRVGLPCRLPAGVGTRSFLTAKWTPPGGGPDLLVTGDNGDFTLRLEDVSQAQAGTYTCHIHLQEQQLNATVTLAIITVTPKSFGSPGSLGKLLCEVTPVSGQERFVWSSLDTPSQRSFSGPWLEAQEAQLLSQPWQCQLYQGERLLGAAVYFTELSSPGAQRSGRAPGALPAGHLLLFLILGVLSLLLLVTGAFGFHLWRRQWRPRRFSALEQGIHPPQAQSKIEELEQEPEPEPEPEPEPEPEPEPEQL
# test: FACS, HEK293-hLAG-3; 200.000 nM
Task for the reader: assign each of the following binders its reported Mean fluorescence intensity.

# binder, experimental_value
data = [
    ("556F6B8 (mouse antibody purified from hybridoma) (antibody, V domains shown, also called mAb123-556F6B8) VH: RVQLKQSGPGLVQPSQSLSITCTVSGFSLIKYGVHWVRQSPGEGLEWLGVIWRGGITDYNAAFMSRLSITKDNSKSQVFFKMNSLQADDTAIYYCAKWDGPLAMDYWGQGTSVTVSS VL: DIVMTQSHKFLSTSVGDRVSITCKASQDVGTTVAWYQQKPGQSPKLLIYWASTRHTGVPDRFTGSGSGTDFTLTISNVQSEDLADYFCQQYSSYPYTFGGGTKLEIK", "83.7 MFI"),
    ("409B11E12 (mouse antibody purified from hybridoma) (antibody, V domains shown, also called mAb104-409B11E12) VH: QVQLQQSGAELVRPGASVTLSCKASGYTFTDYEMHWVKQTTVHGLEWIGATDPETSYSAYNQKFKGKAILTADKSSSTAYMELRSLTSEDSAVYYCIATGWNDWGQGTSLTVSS VL: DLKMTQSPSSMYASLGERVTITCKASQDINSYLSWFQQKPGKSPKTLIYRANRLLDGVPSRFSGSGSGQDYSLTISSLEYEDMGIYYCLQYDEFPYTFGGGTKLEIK", "144 MFI"),
    ("105F1E10 (mouse antibody purified from hybridoma) (antibody, V domains shown, also called mAb009-105F1E10) VH: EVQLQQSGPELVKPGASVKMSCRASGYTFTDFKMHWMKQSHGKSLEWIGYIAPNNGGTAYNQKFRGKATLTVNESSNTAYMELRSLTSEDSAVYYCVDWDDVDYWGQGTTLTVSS VL: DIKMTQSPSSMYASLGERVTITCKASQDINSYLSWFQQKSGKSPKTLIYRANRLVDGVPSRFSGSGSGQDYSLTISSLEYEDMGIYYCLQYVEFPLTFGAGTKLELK", "330 MFI"),
    ("409D4E10 (mouse antibody purified from hybridoma) (antibody, V domains shown, also called mAb112-409D4E10) VH: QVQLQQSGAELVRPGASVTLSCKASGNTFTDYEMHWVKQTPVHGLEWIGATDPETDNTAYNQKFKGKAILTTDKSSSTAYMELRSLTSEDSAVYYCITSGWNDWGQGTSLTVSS VL: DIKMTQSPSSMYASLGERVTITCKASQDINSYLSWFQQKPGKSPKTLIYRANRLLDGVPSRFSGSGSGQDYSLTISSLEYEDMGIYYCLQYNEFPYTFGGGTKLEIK", "154 MFI"),
]

Attention now turns to another entry.
Query :: Query: Mean fluorescence intensity; subject: 405B8H3 (mouse antibody purified from hybridoma) (antibody, V domains shown, also called mAb103-405B8H3; 405B81-13) VH: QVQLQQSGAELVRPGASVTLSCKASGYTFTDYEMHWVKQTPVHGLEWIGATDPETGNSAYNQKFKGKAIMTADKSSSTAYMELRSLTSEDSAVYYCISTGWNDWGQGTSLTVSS VL: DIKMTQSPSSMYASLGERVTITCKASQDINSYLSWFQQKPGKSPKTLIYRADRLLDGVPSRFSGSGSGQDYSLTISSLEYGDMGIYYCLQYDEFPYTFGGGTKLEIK
Result :: 324 MFI
